Experiment: qHTS of pediatric cancer cell lines to identify multiple opportunities for drug repurposing: Confirmatory screen for DAOY cells (AID 1347114); also: nearly all actives have a fitted effect of over 65% in size
Conditions: DAOY medulloblastoma cells viability, cytotoxicity qHTS; series mostly up to 45.9 µM
Experimental: Drug repurposing or repositioning has been offered as a strategy for drug development in oncology programs. […] [1] Shen, M et al. Quantitative high-throughput phenotypic screening of pediatric cancer cell lines identifies multiple opportunities for drug repurposing. […] Cells were assayed in growth media at a density of 500-1,000 cells/well. […] After a 15 min incubation at room temperature, samples were analyzed for luminescence intensity using a ViewLux High-throughput CCD imager equipped with clear filters.
Results filed as inconclusive are left out. Calls of active or inactive are those of the source. Calls follow the shape of the dose curve; as a rule, active = well fitted cell-killing curve with a large enough effect; inconclusive = small, poorly fitted or top-dose-only effect; inactive = no such curve, though single readings can be large or run the other way.
Select the correct class. Options are TRUE (active), FALSE (inactive) and nothing else.

Just curious, what result did O=C1c2c(O)cccc2[C@@H]([C@@H]2O[C@H](CO)[C@@H](O)[C@H](O)[C@H]2O)c2cc(CO)cc(O)c21 get here?
FALSE

What did the test return for CC(C)NC[C@@H](C(=O)N1CCN(c2ncnc3c2[C@H](C)C[C@H]3O)CC1)c1ccc(Cl)cc1 ?
FALSE

Per the assay record, what outcome was assigned to CNC(=O)c1ccc(Nc2cc(Nc3ccccc3S(=O)(=O)C(C)C)c3cc[nH]c3n2)nc1 ?
TRUE

What call does the record list for O=S(=O)(O)CCSSCCS(=O)(=O)O ?
FALSE

Call for entry CC(C)(O)Cn1c(NC(=O)c2ccc(-c3cn[nH]c3)s2)nc2cc(CN3CCOCC3)ccc21 :
TRUE

====

Experiment: Quantitative High-Throughput drug screen in 47 multiple myeloma cell lines against the NCATS MIPE library collection: ARD_JJKsccE7 cell viability assay (AID 1918929)
Details: ARD myeloma cell line viability, CellTiter-Glo, 48 h; series mostly up to 45.8 µM
Records with an inconclusive call do not appear. Calls of active or inactive are those of the source. The call rests on the fitted dose curve; in most records, active means well fitted cell-killing curve with a large enough effect; inconclusive means small, poorly fitted or top-dose-only effect, or effect the other way; inactive means no such curve, though single readings can be large or run the other way.
Would you mind answering with one of these outcomes? active, inactive

Which outcome was entered for the compound C[C@H](NC(=O)Cc1cc(F)cc(F)c1)C(=O)N[C@H](C(=O)OC(C)(C)C)c1ccccc1 in this test?
inactive

Identify the outcome logged in this assay for the compound shown: CN(C)CCN1C(=O)c2cccc3cc(N)cc(c23)C1=O
active

Lab log entry: CC(=CC(=O)Nc1ccccc1C(=O)O)c1ccc2ccccc2c1 — outcome as called in the assay?
active

Given C[C@@]12C(=O)OC(=O)[C@@]1(C)C1CCC2O1 , state the outcome it received in this test.
active

Test call, this compound: NC(=O)c1cccc(-c2cccc(OC(=O)NC3CCCCC3)c2)c1
inactive

Short answer needed: outcome of this test for CC(=O)N1CCN(c2ccc(OCc3nn(C)c(C)c3-c3cccc4c(CCCOc5cccc6ccccc56)c(C(=O)O)n(Cc5cccnc5)c34)cc2)CC1 ?
active

For COc1cc2ncnc(Nc3cccc(Br)c3)c2cc1OC , which call appears in the assay record?
active

What classification did O=C(Nc1nnc(-c2ccco2)o1)c1cc(-c2ccccc2)nc2ccccc12 end up with in this test?
active

Can you look up the reported call for CC(C)c1cnn2c(NCc3ccccc3)cc(NCCCCCCN)nc12 for me?
active

For Cn1cc(C2=C(c3c4n(c5ccccc35)CCC(CN)C4)C(=O)NC2=O)c2ccccc21 (stereo not given) , which call appears in the assay record?
active
